Target: Voltage-gated inwardly rectifying potassium channel KCNH2 (Homo sapiens)
Assay: qHTS Assay for Small Molecule Inhibitors of the Human hERG Channel Activity (AID 588834);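 also: lower thallium flux fluorescence means stronger hERG block; nearly all actives have a fitted effect of over 50% in size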
Details: U2OS BacMam hERG, FluxOR thallium flux fluorescence; series mostly up to 46.1 µM
Records with an inconclusive call do not appear. The source made the active and inactive calls. Calls follow the shape of the dose curve; as a rule, active = well fitted inhibition curve with a large enough effect; inconclusive = small, poorly fitted or top-dose-only effect; inactive = flat fitted curve, though single readings scatter.
Reply using exactly one outcome from active, inactive

>>> labelclass("CCOc1cc(CC(=O)N[C@@H](CC(C)C)c2ccccc2N2CCCCC2)ccc1C(=O)O")
"inactive"
>>> labelclass("O=C(O)CCNC(=O)c1ccc(N=Nc2ccc(O)c(C(=O)O)c2)cc1")
"inactive"
>>> labelclass("N=C(N)c1ccc2cc(OC(=O)c3ccc(N=C(N)N)cc3)ccc2c1")
"inactive"

Challenge: What did the test return for Nc1cccc2c1CN(C1CCC(=O)NC1=O)C2=O (stereo not given) ?
Response given: inactive

Challenge: What did the test return for CN1CCC(=C2c3ccccc3CCc3sccc32)CC1 ?
Response given: active

Challenge: What did the test return for O=C1c2c(O)cc(O)cc2OC(c2ccc(O)c(O)c2)C1O (stereo not given) ?
Response given: inactive

Challenge: What did the test return for CCC[C@@H]1C[C@@H](C(=O)N[C@@H]([C@H]2O[C@H](SC)[C@H](O)[C@@H](O)[C@H]2O)[C@@H](C)O)N(C)C1 ?
Response given: inactive

Challenge: What did the test return for CCCCCCCCCCCCCCCCCCCCCCO ?
Response given: inactive

Challenge: What did the test return for N=C(N=C(N)N)N1CCOCC1 ?
Response given: inactive

Challenge: What did the test return for O=C1c2ccccc2-c2n[nH]c3cccc1c23 ?
Response given: inactive

Challenge: What did the test return for Cc1c(C(=O)NN2CCCCC2)nn(-c2ccc(Cl)cc2Cl)c1-c1ccc(Cl)cc1 ?
Response given: active

Challenge: What did the test return for CC1(C)CCC(C)(C)c2cc(NC(=O)c3ccc(C(=O)O)cc3)ccc21 ?
Response given: inactive

Challenge: What did the test return for O=C(NC(Cc1cc(=O)[nH]c2ccccc12)C(=O)O)c1ccc(Cl)cc1 (stereo not given) ?
Response given: inactive

Challenge: What did the test return for COc1ccc(C2(C#N)CCC(C(=O)O)CC2)cc1OC1CCCC1 (stereo not given) ?
Response given: inactive

Challenge: What did the test return for CC(C)c1ccc2oc3nc(N)c(C(=O)O)cc3c(=O)c2c1 ?
Response given: inactive

Challenge: What did the test return for O=c1ccc2ccc(O)c(O)c2o1 ?
Response given: inactive

Challenge: What did the test return for COCCCOc1ccnc(CS(=O)c2nc3ccccc3[nH]2)c1C (stereo not given) ?
Response given: inactive

Challenge: What did the test return for Cc1cc2c(s1)Nc1ccccc1N=C2N1CCN(C)CC1 ?
Response given: inactive

Challenge: What did the test return for C=C(c1ccc(C(=O)O)cc1)c1cc2c(cc1C)C(C)(C)CCC2(C)C ?
Response given: inactive

---

Assay: Quantitative High-Throughput drug screen in 47 multiple myeloma cell lines against the NCATS MIPE library collection: JIM1_ECACC cell viability assay (AID 1918964)
Conditions: JIM1 myeloma viability, CellTiter-Glo ATP luminescence, 48 h; series mostly up to 45.8 µM
Results filed as inconclusive are left out. Calls of active or inactive are those of the source. Calls come from the whole dose curve; as a rule, active = well fitted cell-killing curve with a large enough effect; inconclusive = small, poorly fitted or top-dose-only effect, or effect the other way; inactive = no such curve, though single readings can be large or run the other way.
Reply using exactly one outcome from T for active, F for inactive

Worked examples follow.
>>> labelclass("O=C(NOCC1CC1)c1ccc(F)c(F)c1Nc1ccc(I)cc1Cl")
"T"
>>> labelclass("NS(=O)(=O)c1cc(C(=O)O)c(NCc2ccco2)cc1Cl")
"F"
>>> labelclass("CCc1nc(N)nc(N)c1-c1ccc(Cl)cc1")
"F"
>>> labelclass("C[C@H](Cc1ccc(O)c(O)c1)[C@@H](C)Cc1ccc(O)c(O)c1")
"F"
>>> labelclass("O=C(NCC1CCCCN1)c1cc(OCC(F)(F)F)ccc1OCC(F)(F)F (stereo unspecified)")
"T"

Next up:
Challenge: What did the test return for Cc1cccc(CN2CCN(C(c3ccccc3)c3ccc(Cl)cc3)CC2)c1 (stereo unspecified) ?
Response given: F

These measurements were taken from PubChem BioAssay (NCATS).
